Taken from ChEMBL document CHEMBL4699392.

# System: SGC-7901
# Experiment description: Cytotoxicity against human SGC-7901 cells assessed as reduction in cell viability incubated for 24 hrs by MTT assay
# Type: functional, cell-based
# Setup conditions: SGC-7901, 24 h
Readout label: IC50 (nM)
Response body: numeric value in nM, unit text excluded.

Input line: Give IC50 for "COc1cccc(-c2nnc3n2N=C(c2ccc(OC)c(N)c2)CS3)c1" tested on SGC-7901.
Output line: 11

====

# System: HeLa
# Experiment description: Cytotoxicity against human HeLa cells assessed as reduction in cell viability incubated for 48 hrs by MTT assay
# Assay type: functional, cell-based
Readout label: IC50 (nM)
Response body: numeric value in nM, unit text excluded.

Input line: Give IC50 for "COc1ccc(S(=O)(=O)Nc2cccnc2Nc2ccc(O)cc2)cc1" tested on HeLa.
Output line: 2180

Input line: Give IC50 for "COc1cc(Nc2ncccc2NC(=O)c2cn(Cc3cccc(Oc4ccccc4)c3)nn2)cc(OC)c1" tested on HeLa.
Output line: 1330

====

# System: Tubulin
# Experiment description: Inhibition of tubulin polymerization (unknown origin) incubated for 1 hr by fluorescence based assay
# Format: protein-complex assay, Homo sapiens
Would you mind telling me the reported IC50 of each entry?
Response body: numeric value in nM, unit text excluded.

Input line: Give IC50 for "COc1cc(Cc2nnc(S)n2/N=C\c2cccc(Cl)c2Cl)cc(OC)c1OC" tested on Tubulin.
Output line: 170

Input line: Give IC50 for "O=C(c1cn(Cc2cccc(Oc3ccccc3)c2)nn1)c1cccnc1Nc1ccc(F)cc1" tested on Tubulin.
Output line: 1840

Input line: Give IC50 for "COc1cc(Nc2ncccc2NC(=O)c2cn(Cc3cccc(Oc4ccccc4)c3)nn2)cc(OC)c1" tested on Tubulin.
Output line: 2040

====

# Tested on: A549
# Experiment description: Cytotoxicity against human A549 cells assessed as reduction in cell viability incubated for 24 hrs by MTT assay
# Format: functional, cell-based
# Setup conditions: A549, 24 h
Readout label: IC50 (µM)
Response body: numeric value in µM, unit text excluded.

Input line: Tell me IC50 reported for "COc1cc(Cc2nnc(S)n2/N=C\c2cccc(Cl)c2Cl)cc(OC)c1OC"
Output line: 9.71

Input line: Tell me IC50 reported for "COc1cccc(-c2nnc3n2N=C(c2ccc(OC)c(N)c2)CS3)c1"
Output line: 0.011

====

# System: Tubulin
# Experiment description: Inhibition of tubulin polymerization (unknown origin) measured for every 1 min interval for 90 mins by fluorescence based assay
# Type: protein-complex assay, Homo sapiens
Readout label: IC50 (µM)
Response body: numeric value in µM, unit text excluded.

Input line: Tell me IC50 reported for "COc1cccc(-c2nnc3n2N=C(c2ccc(OC)c(N)c2)CS3)c1"
Output line: 1.6

====

# Experiment description: Cytotoxicity against Ovarian cancer cell line (unknown origin) assessed as reduction in cell viability incubated for 72 hrs by MTT assay
# Format: functional
Readout label: IC50 (nM)
Response body: numeric value in nM, unit text excluded.

Input line: Tell me IC50 reported for "COc1cc(-c2nncn2-c2ccc3c(ccn3C)c2)cc(OC)c1OC"
Output line: 2.1
